target_system: BRD4 bromo domain 2 [BRD4(2)] (Homo sapiens, UniProt O60885)
Construct: N-terminally His6-tagged BRD4(2) (amino acids 357-445); made in house; host or cells: E. coli
assay_remarks: BRD4(2)/acetylated peptide H4 binding assay (TR-FRET)
assay_setup: inhibition of interaction between His6-tagged BRD4(2) (amino acids 357-445) and acetylated histone H4 peptide
Description: Protein-Protein Interaction Assay: BRD4/Acetylated Peptide H4 Binding Assay 2. Assay Description for BRD4 Bromo Domain 2 [BRD4(2)] To assess the BRD4(2) binding strength of the substances described in this application, the ability thereof to inhibit the interaction between BRD4(2) and acetylated histone H4 in a dose-dependent manner was quantified. […]
pIC50: −log10 of the molar value.
measurement_kind: pIC50

(1) COc1cc(C(=O)N[C@H]2CC[C@H](N3CCN(CC4CC4)CC3)CC2)ccc1Nc1ccc2c(n1)N(C1CCOCC1)[C@H](C)C(=O)N2C [Example 14]
(2) CC(C)N1CCN(S(=O)(=O)c2ccc(Nc3ccc4c(n3)N(C3CCOCC3)[C@H](C)C(=O)N4C)cc2)CC1 [Example 16]
Which one would you say has the larger pIC50 value: 1 , or 2 ? Label of pick, please.
1
(1: 6.97, 2: 6.67)

(1) COc1cc(C(=O)N2CC3(COC3)C2)ccc1Nc1ccc2c(n1)N(C1CCCCCC1)[C@H](C)C(=O)N2C [Example 32]
(2) COc1cc(C(=O)N2CC3(CCS3(=O)=O)C2)ccc1Nc1ccc2c(n1)N(C1CCCCC1)[C@H](C)C(=O)N2C [Example 74]
Lower value of pIC50 belongs to which: 1 or 2 ? Pick one and reply with its label.
2
(2: 6.81, 1: 7.11)

* * *

target_system: BRD4 bromo domain 2 [BRD4(2)] (Homo sapiens)
Construct: N-terminally His6-tagged BRD4(2) (amino acids 357-445)
assay_remarks: BRD4(2)/acetylated peptide H4 binding assay (TR-FRET)
assay_setup: inhibition of interaction between His6-tagged BRD4(2) (amino acids 357-445) and acetylated histone H4 peptide
pIC50: −log10 of the molar value.
measurement_kind: pIC50

{"compound": "C[C@@H]1C(=O)N(C)c2ccc(Nc3ccc(C(=O)NCCN4CCN(C)CC4)cc3)nc2N1C1CCCCC1 [Example 66]", "target_system": "BRD4 bromo domain 2 [BRD4(2)] (Homo sapiens)", "pIC50": 6.81}
{"compound": "COc1cc(C(=O)NC2CCN(C)CC2)ccc1Nc1ccc2c(n1)N(C1CCOCC1)[C@H](C)C(=O)N2C [Example 13]", "target_system": "BRD4 bromo domain 2 [BRD4(2)] (Homo sapiens)", "pIC50": 6.95}
{"compound": "COc1cc(C(=O)NC2CCN(C(C)=O)CC2)ccc1Nc1ccc2c(n1)N(C1CCCCCC1)[C@H](C)C(=O)N2C [Example 88]", "target_system": "BRD4 bromo domain 2 [BRD4(2)] (Homo sapiens)", "pIC50": 6.84}
{"compound": "CC(C)N1c2nc(Nc3ccc(C(=O)N4CC5(CCS5(=O)=O)C4)cc3)ccc2N(C)C(=O)[C@H]1C [Example 9]", "target_system": "BRD4 bromo domain 2 [BRD4(2)] (Homo sapiens)", "pIC50": 6.89}

* * *

target_system: BRD4 bromo domain 1 [BRD4(1)] (Homo sapiens)
Construct: N-terminally His6-tagged BRD4(1) (amino acids 67-152)
assay_remarks: BRD4(1)/acetylated peptide H4 binding assay (TR-FRET)
assay_setup: inhibition of interaction between His6-tagged BRD4(1) (amino acids 67-152) and acetylated histone H4 peptide
pIC50: −log10 of the molar value.
measurement_kind: pIC50

{"smiles": "C[C@@H]1C(=O)N(C)c2ccc(Nc3ccc(S(=O)(=O)NCCN(C)C)cc3)nc2N1C1CCOCC1", "pIC50": 7.09}
{"smiles": "C[C@@H]1C(=O)N(C)c2ccc(Nc3ccc(C(=O)N4CC5(CCS5(=O)=O)C4)cc3)nc2N1C1CCCC1", "pIC50": 7.04}

(P) COc1cc(C(=O)N2CCN(C)CC2)ccc1Nc1ccc2c(n1)N(C1CCOCC1)[C@H](C)C(=O)N2C
(Q) CC(C)N1CCN(S(=O)(=O)c2ccc(Nc3ccc4c(n3)N(C3CCOCC3)[C@H](C)C(=O)N4C)cc2)CC1
Input pair: P , Q . Output: entry with lower pIC50. Write the label of whichever entry you select.
Q

* * *

target_system: BRD4 bromo domain 2 [BRD4(2)] (Homo sapiens, UniProt O60885)
Construct: N-terminally His6-tagged BRD4(2) (amino acids 357-445)
assay_remarks: BRD4(2)/acetylated peptide H4 binding assay (TR-FRET)
assay_setup: inhibition of interaction between His6-tagged BRD4(2) (amino acids 357-445) and acetylated histone H4 peptide
pIC50: −log10 of the molar value.
measurement_kind: pIC50

Field: example entries. Status: answers known.
{"molecule": "COc1cc(C(=O)N2CCN(C)CC2)ccc1Nc1ccc2c(n1)N(C1CCOCC1)[C@H](C)C(=O)N2C", "pIC50": 7.07}
{"molecule": "C[C@@H]1C(=O)N(C)c2ccc(Nc3ccc(S(=O)(=O)N(C)C)cc3)nc2N1C1CCOCC1", "pIC50": 7.42}
{"molecule": "COc1cc(C(=O)N2CCN(C3CC3)CC2)ccc1Nc1ccc2c(n1)N(C1CCOCC1)[C@H](C)C(=O)N2C", "pIC50": 6.92}

(1) CC1C(=O)N(C)c2ccc(Nc3ccc(S(=O)(=O)NC4CCN(C)CC4)cc3)nc2N1c1ccccc1 (stereo not shown)
(2) COc1cc(S(=O)(=O)N2CCN(C)CC2)ccc1Nc1ccc2c(n1)N(C1CCOCC1)[C@H](C)C(=O)N2C
(3) C[C@@H]1C(=O)N(C)c2ccc(Nc3ccc(S(=O)(=O)N(C)C)cc3)nc2N1C1CCN(C(=O)OC(C)(C)C)CC1
Ascending by pIC50, please: list the molecules accordingly. Record the ranking as a list of labels in the requested order.
3, 1, 2

* * *

target_system: BRD4 bromo domain 2 [BRD4(2)] (Homo sapiens, UniProt O60885)
Construct: N-terminally His6-tagged BRD4(2) (amino acids 357-445)
assay_remarks: BRD4(2)/acetylated peptide H4 binding assay (TR-FRET)
assay_setup: inhibition of interaction between His6-tagged BRD4(2) (amino acids 357-445) and acetylated histone H4 peptide
measurement_kind: IC50 (nM)

{"smiles": "C[C@@H]1C(=O)N(C)c2ccc(Nc3ccc(S(=O)(=O)NC4CCN(C)CC4)cc3)nc2N1c1ccccc1", "target_system": "BRD4 bromo domain 2 [BRD4(2)] (Homo sapiens, UniProt O60885)", "measurement_kind": "IC50", "value_unit": "nM", "val": 239}
{"smiles": "COc1cc(C(=O)NC2CCN(C)CC2)ccc1Nc1ccc2c(n1)N(C1CCCCC1)[C@H](C)C(=O)N2C", "target_system": "BRD4 bromo domain 2 [BRD4(2)] (Homo sapiens, UniProt O60885)", "measurement_kind": "IC50", "value_unit": "nM", "val": 111}

(I) COc1cc(C(=O)N2CCC(N3CCCCC3)CC2)ccc1Nc1ccc2c(n1)N(C1CCOCC1)[C@H](C)C(=O)N2C
(II) C[C@@H]1C(=O)N(C)c2ccc(Nc3ccc(C(=O)N[C@H]4CC[C@H](N5CCN(CC6CC6)CC5)CC4)cc3)nc2N1C1CCCCC1
// compare: I vs II , metric IC50, want the smaller Identify your pick by its label.
I
(I: 94 nM, II: 310 nM)

* * *

target_system: BRD4 bromo domain 1 [BRD4(1)] (Homo sapiens)
Construct: N-terminally His6-tagged BRD4(1) (amino acids 67-152)
assay_remarks: BRD4(1)/acetylated peptide H4 binding assay (TR-FRET)
assay_setup: inhibition of interaction between His6-tagged BRD4(1) (amino acids 67-152) and acetylated histone H4 peptide
measurement_kind: IC50 (nM)

Past entries and their recorded results:
{"compound": "COc1cc(C(=O)N2CCN(C(C)C)CC2)ccc1Nc1ccc2c(n1)N(Cc1ccccc1)[C@H](C)C(=O)N2C [Example 80]", "val": 137}
{"compound": "COc1cc(C(=O)NC2CCN(C)CC2)ccc1Nc1ccc2c(n1)N(C1CCOCC1)[C@H](C)C(=O)N2C [Example 13]", "val": 114}
{"compound": "C[C@@H]1C(=O)N(C)c2ccc(Nc3ccc(C(=O)NCCN4CCN(C)CC4)cc3)nc2N1C1CCCCC1 [Example 66]", "val": 140}

(I) COc1cc(C(=O)NCCN2CCN(C)CC2)ccc1Nc1ccc2c(n1)N(C1CCCCC1)[C@H](C)C(=O)N2C [Example 67]
(II) COc1cc(C(=O)N2CCC(N3CCCCC3)CC2)ccc1Nc1ccc2c(n1)N(C1CCOCC1)[C@H](C)C(=O)N2C [Example 53]
(III) C[C@@H]1C(=O)N(C)c2ccc(Nc3ccc(S(=O)(=O)NC4CCN(C)CC4)cc3)nc2N1C1CCOCC1 [Example 22]
Put the items in sequence by IC50, from largest down. Your answer should be the labels, listed in the requested order.
I, II, III
(I: 178 nM, II: 90 nM, III: 52 nM)
